Form field: pKi (one value per entry).
- ASSAY TARGET: Kallikrein-7 (Homo sapiens, UniProt P49862)
- Sequence (P49862 whole entry, the tested form may be a part): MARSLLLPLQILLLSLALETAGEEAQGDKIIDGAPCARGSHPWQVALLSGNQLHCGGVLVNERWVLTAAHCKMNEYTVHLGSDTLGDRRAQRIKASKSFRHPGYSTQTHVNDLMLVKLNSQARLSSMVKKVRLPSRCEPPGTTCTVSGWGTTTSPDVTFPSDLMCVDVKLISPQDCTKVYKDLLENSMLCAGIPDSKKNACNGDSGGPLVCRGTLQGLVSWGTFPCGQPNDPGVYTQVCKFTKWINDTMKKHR
- TEST: Inhibition of C-terminal poly-His-tagged human recombinant KLK7 (30 to 253 residues) transfected in CHO cells assessed as inhibition constant using KHLY-pNA as fluorogenic substrate incubated for 30 mins by fluorescence plate reader assay
- Format: cell-based
Numbered stars: 1 amine (or outer) side, 2 acyl side, 3 side chain; on linkers, the order of the positions; unused ones are H or OH. Bridge positions count the residues as written; N and C are the ends. Peptide text beside a SMILES is read from it. Pyridine(2,6-diCH2) = c1cc(C[*:1])nc(C[*:2])c1; CH2COCH2 = O=C(C[*:1])C[*:2]
Just the number, please; pKi means minus log10 of the concentration in mol/L.

Worked examples follow.
MOLECULE	pKi
CC(C)C[C@@H]1NC(=O)[C@@H](NC(=O)[C@@H]2CCCN2)CSCc2cccc(n2)CSC[C@@H](C(=O)N[C@@H](CO)C(=O)O)NC(=O)[C@H](CO)NC(=O)[C@H](CCC(N)=O)NC(=O)[C@H](Cc2ccc(O)cc2)NC1=O (H-PCLYQSCS-OH; linker 2-7 via Pyridine(2,6-diCH2))	6.36
CC(C)C[C@@H]1NC(=O)[C@H](Cc2ccc(O)cc2)NC(=O)[C@H](CC(C)C)NC(=O)[C@@H](NC(=O)[C@@H]2CCCN2)CSCc2cccc(n2)CSC[C@@H](C(=O)N[C@@H](CO)C(=O)O)NC(=O)[C@H](C)NC1=O (H-PCLYLACS-OH; linker 2-7 via Pyridine(2,6-diCH2))	7.76

Q. // Input: CC(C)C[C@@H]1NC(=O)[C@H](Cc2ccc(O)cc2)NC(=O)[C@H](CC(C)C)NC(=O)[C@@H](NC(=O)[C@@H]2CCCN2)CSCC(=O)CSC[C@@H](C(=O)N[C@@H](CO)C(=O)O)NC(=O)[C@H](CCC(N)=O)NC(=O)[C@H](C)NC1=O (H-PCLYLAQCS-OH; linker 2-8 via CH2COCH2) . Output its pKi only.
A. 7.44

Q. Item CC(C)C[C@@H]1NC(=O)[C@@H](NC(=O)[C@@H]2CCCN2)CSCc2cccc(n2)CSC[C@@H](C(=O)N[C@@H](CO)C(=O)O)NC(=O)[C@H](CO)NC(=O)[C@H](CCCNC(=N)N)NC(=O)[C@H](Cc2ccc(O)cc2)NC1=O (H-PCLYRSCS-OH; linker 2-7 via Pyridine(2,6-diCH2)) : provide pKi
A. 7.28

Q. Give the value of pKi reported for the following: CC(C)C[C@@H]1NC(=O)[C@@H](NC(=O)[C@@H]2CCCN2)CSCc2cccc(n2)CSC[C@@H](C(=O)N[C@@H](CO)C(=O)O)NC(=O)[C@H](CO)NC(=O)[C@H](CC(C)C)NC(=O)[C@H](Cc2ccc(O)cc2)NC1=O (H-PCLYLSCS-OH; linker 2-7 via Pyridine(2,6-diCH2))
A. 7.53
